Molecular target: CD46 on Colo205 cells (human) (UniProt P15529)
Experiment: FACS, Colo205 cells that express CD46, pH 7.4
assay.readout: EC50 (µg/mL)
Note: unit µg/mL is implicit; provide only the numeric part.

Field: example entries. Status: answers known.
- binder: "BA-133-04-03 (antibody, V domains shown) VH: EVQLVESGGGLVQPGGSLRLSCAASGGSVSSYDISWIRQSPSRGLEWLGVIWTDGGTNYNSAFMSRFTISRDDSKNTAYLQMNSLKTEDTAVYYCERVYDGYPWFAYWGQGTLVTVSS VL: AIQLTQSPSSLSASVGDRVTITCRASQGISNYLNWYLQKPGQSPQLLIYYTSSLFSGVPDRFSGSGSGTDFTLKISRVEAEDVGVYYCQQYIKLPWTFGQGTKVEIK"
  unit.descriptor: "µg/mL"
  EC50: 1.47
- binder: "BAP133-2-02-12 (antibody, V domains shown) VH: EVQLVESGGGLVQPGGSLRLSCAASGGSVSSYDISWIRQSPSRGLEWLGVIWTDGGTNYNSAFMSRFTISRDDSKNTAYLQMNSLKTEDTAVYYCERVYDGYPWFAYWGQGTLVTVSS VL: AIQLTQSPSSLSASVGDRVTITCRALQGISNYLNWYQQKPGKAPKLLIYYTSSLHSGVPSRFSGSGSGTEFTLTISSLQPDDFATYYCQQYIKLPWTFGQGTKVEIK"
  unit.descriptor: "µg/mL"
  EC50: 3.63
- binder: "BAP133-2-03-03-SL (antibody, V domains shown) VH: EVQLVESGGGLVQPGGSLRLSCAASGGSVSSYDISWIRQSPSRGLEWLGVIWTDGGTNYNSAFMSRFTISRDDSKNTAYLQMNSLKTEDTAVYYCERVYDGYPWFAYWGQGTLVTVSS VL: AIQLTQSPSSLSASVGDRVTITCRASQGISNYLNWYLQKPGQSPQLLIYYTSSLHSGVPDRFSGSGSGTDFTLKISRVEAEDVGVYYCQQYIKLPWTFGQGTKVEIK"
  unit.descriptor: "µg/mL"
  EC50: 1.48
- binder: "BA-133-04-04 (antibody, V domains shown) VH: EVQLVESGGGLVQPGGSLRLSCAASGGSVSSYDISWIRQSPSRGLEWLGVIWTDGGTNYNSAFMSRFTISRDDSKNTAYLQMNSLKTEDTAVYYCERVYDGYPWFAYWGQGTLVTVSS VL: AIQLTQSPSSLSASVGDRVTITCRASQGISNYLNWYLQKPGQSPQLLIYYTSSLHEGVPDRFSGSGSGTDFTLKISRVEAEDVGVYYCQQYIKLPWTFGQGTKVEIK"
  unit.descriptor: "µg/mL"
  EC50: 0.96
- binder: "Benchmark (BM) BA-133-00-01 (antibody, V domains shown) VH: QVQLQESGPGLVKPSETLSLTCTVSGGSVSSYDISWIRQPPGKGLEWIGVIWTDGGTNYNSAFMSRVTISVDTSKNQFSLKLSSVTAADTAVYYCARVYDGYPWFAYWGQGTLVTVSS VL: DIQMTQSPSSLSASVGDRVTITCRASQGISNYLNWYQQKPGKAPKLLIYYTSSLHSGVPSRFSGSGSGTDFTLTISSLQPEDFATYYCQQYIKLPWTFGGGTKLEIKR"
  unit.descriptor: "µg/mL"
  EC50: 0.513
- binder: "BA-133-04-01 (antibody, V domains shown) VH: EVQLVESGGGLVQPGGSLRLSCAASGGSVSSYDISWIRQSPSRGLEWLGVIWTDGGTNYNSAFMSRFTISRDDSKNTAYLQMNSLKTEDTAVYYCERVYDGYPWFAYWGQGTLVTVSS VL: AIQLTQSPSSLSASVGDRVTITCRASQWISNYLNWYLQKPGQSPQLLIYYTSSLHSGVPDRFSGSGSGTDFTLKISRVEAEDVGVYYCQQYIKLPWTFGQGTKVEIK"
  unit.descriptor: "µg/mL"
  EC50: 1.66

Turning now to a further record.
Data request: Give its EC50 value. Item: BA-133-04-02 (antibody, V domains shown) VH: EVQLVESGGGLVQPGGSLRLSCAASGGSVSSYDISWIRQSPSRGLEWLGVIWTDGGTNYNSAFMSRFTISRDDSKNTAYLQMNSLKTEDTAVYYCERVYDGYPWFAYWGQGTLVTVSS VL: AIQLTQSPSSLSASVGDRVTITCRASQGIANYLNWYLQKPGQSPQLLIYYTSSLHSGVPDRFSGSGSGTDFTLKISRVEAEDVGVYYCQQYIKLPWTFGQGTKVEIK
Data returned: 1.57

All values here come from patent US20230242662A1.
